# target-under-test: Prostaglandin E synthase (Homo sapiens)
# Sequence (whole entry): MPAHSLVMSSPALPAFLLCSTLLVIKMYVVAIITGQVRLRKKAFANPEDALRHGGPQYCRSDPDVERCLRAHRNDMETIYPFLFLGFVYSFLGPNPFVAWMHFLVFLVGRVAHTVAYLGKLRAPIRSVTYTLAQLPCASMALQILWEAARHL
# test-summary: Inhibition of mPGES1 in human HeLa cells assessed as reduction in TNF-alpha induced PGE2 production at 50 uM preincubated for 2 hrs followed by TNF-alpha addition for 24 hrs by ELISA
# Type: cell-based
measure: inhibition (%)
Express your answer in %, writing the number without its unit.

Consider the worked cases shown below.
- chemical-smiles: "COc1cc(O)c2c(=O)oc(-c3ccccc3)cc2c1"
  inhibition, %: 54
- chemical-smiles: "O=c1oc(-c2ccc(O)cc2)cc2cccc(O)c12"
  inhibition, %: 74

Field: next compound
Qu. # query: inhibition of entry COc1cc(-c2cc3ccccc3c(=O)o2)cc(OC)c1OC
Ans. 73

====

# target-under-test: UniProt O14684
# Sequence (O14684 whole entry): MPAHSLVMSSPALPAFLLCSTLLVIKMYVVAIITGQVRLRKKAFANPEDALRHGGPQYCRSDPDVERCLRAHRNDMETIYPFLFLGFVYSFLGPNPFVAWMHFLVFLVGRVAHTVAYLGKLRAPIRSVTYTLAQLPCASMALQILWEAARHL
# test-summary: Inhibition of mPGES1 in human HeLa cells assessed as reduction in TNF-alpha induced PGE2 production preincubated for 2 hrs followed by TNF-alpha addition for 24 hrs by ELISA
measure: IC50 (µM)
Express your answer in µM, writing the number without its unit.

Consider the worked cases shown below.
- chemical-smiles: "O=c1oc(-c2ccc(O)cc2)cc2cccc(O)c12"
  experimental-result: 7.1
- chemical-smiles: "COc1ccc(-c2cc3cccc(O)c3c(=O)o2)cc1O"
  experimental-result: 11.3
- chemical-smiles: "COc1ccc(-c2cc3ccccc3c(=O)o2)cc1O"
  experimental-result: 9.7
- chemical-smiles: "COc1cc(-c2cc3ccccc3c(=O)o2)cc(OC)c1OC"
  experimental-result: 9.3

Field: next molecule
Qu. # query: IC50 of entry O=c1oc(-c2ccccc2)cc2ccccc12
Ans. 9.5

====

# target-under-test: Polyunsaturated fatty acid 5-lipoxygenase (Homo sapiens) (UniProt P09917)
# test-summary: Inhibition of human recombinant 5-LOX expressed in Escherichia coli BL21 assessed as decrease in 5-HPETE production at 50 uM preincubated with enzyme followed by arachidonic acid substrate addition by UV-vis spectrophotometry
measure: inhibition (%)
Express your answer in %, writing the number without its unit.

- chemical-smiles: "COc1ccc(-c2cc3cccc(O)c3c(=O)o2)cc1O"
  target-under-test: "Polyunsaturated fatty acid 5-lipoxygenase (Homo sapiens) (UniProt P09917)"
  measure: "inhibition"
  experimental-result: 59.1
- chemical-smiles: "COc1ccc(-c2cc3ccccc3c(=O)o2)cc1O"
  target-under-test: "Polyunsaturated fatty acid 5-lipoxygenase (Homo sapiens) (UniProt P09917)"
  measure: "inhibition"
  experimental-result: 65.9
- chemical-smiles: "O=c1oc(-c2ccccc2)cc2ccccc12"
  target-under-test: "Polyunsaturated fatty acid 5-lipoxygenase (Homo sapiens) (UniProt P09917)"
  measure: "inhibition"
  experimental-result: 50

Field: next compound
Qu. # query: inhibition of entry COc1cc(O)c2c(=O)oc(-c3ccccc3)cc2c1
Ans. 49.2

====

# target-under-test: Polyunsaturated fatty acid 5-lipoxygenase (Homo sapiens)
# test-summary: Inhibition of human recombinant 5-LOX expressed in Escherichia coli BL21 assessed as decrease in 5-HPETE production at 50 uM preincubated with enzyme followed by arachidonic acid substrate addition by UV-vis spectrophotometry
measure: inhibition (%)
Express your answer in %, writing the number without its unit.

- chemical-smiles: "COc1cc(-c2cc3ccccc3c(=O)o2)cc(OC)c1OC"
  target-under-test: "Polyunsaturated fatty acid 5-lipoxygenase (Homo sapiens)"
  inhibition [%]: 72
- chemical-smiles: "COc1cc(O)c2c(=O)oc(-c3cc(OC)c(OC)c(OC)c3)cc2c1"
  target-under-test: "Polyunsaturated fatty acid 5-lipoxygenase (Homo sapiens)"
  inhibition [%]: 36.2
- chemical-smiles: "O=c1oc(-c2ccc(O)c(O)c2)cc2ccccc12"
  target-under-test: "Polyunsaturated fatty acid 5-lipoxygenase (Homo sapiens)"
  inhibition [%]: 84.1
- chemical-smiles: "CC1(C)Cc2c(-c3ccccc3)c(-c3ccc(Cl)cc3)c(CC(=O)O)n2C1"
  target-under-test: "Polyunsaturated fatty acid 5-lipoxygenase (Homo sapiens)"
  inhibition [%]: 71

Qu. Request: inhibition, test system Polyunsaturated fatty acid 5-lipoxygenase (Homo sapiens), entry O=c1oc(-c2ccc(O)cc2)cc2cccc(O)c12
Ans. 36.4

Qu. Request: inhibition, test system Polyunsaturated fatty acid 5-lipoxygenase (Homo sapiens), entry O=c1oc(-c2ccc(O)cc2)cc2ccccc12
Ans. 34.1

Qu. Request: inhibition, test system Polyunsaturated fatty acid 5-lipoxygenase (Homo sapiens), entry COc1cc(-c2cc3ccccc3c(=O)o2)ccc1O
Ans. 78.8

Qu. Request: inhibition, test system Polyunsaturated fatty acid 5-lipoxygenase (Homo sapiens), entry O=c1oc(-c2ccccc2)cc2cccc(O)c12
Ans. 55.3

Qu. Request: inhibition, test system Polyunsaturated fatty acid 5-lipoxygenase (Homo sapiens), entry COc1cc(-c2cc3cccc(O)c3c(=O)o2)ccc1O
Ans. 35.6

Qu. Request: inhibition, test system Polyunsaturated fatty acid 5-lipoxygenase (Homo sapiens), entry O=c1oc(-c2ccc(O)c(O)c2)cc2cccc(O)c12
Ans. 40.9

====

# target-under-test: Polyunsaturated fatty acid 5-lipoxygenase (Homo sapiens)
# Sequence (P09917 whole entry): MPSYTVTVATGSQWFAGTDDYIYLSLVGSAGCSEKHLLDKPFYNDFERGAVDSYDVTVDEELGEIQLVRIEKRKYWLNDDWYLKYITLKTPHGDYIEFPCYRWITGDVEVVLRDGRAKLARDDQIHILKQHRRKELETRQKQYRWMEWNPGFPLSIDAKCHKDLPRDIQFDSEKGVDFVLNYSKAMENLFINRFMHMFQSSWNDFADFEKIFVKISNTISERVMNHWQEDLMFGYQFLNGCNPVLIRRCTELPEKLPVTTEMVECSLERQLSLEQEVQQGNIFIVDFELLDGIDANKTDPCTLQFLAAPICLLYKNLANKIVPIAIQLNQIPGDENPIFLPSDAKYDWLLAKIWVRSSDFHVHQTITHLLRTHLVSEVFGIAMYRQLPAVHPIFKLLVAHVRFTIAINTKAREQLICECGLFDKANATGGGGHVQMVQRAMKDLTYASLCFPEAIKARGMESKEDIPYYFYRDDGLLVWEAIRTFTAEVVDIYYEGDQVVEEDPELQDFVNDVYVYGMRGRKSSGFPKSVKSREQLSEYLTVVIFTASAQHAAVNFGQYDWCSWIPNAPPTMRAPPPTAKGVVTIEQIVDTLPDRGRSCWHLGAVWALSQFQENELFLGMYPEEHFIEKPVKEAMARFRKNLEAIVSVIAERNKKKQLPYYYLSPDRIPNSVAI
# test-summary: Inhibition of human recombinant 5-LOX expressed in Escherichia coli BL21 assessed as decrease in 5-HPETE production preincubated with enzyme followed by arachidonic acid substrate addition by UV-vis spectrophotometry
The entries below come with measured IC50 values attached.
Express your answer in µM, writing the number without its unit.

Consider the worked cases shown below.
- chemical-smiles: "COc1cc(-c2cc3ccccc3c(=O)o2)ccc1O"
  measure: "IC50"
  experimental-result: 22.8
- chemical-smiles: "CC1(C)Cc2c(-c3ccccc3)c(-c3ccc(Cl)cc3)c(CC(=O)O)n2C1"
  measure: "IC50"
  experimental-result: 0.5
- chemical-smiles: "COc1cc(-c2cc3cccc(O)c3c(=O)o2)cc(OC)c1OC"
  measure: "IC50"
  experimental-result: 12.4
- chemical-smiles: "COc1cc(-c2cc3ccccc3c(=O)o2)cc(OC)c1OC"
  measure: "IC50"
  experimental-result: 20.9

Field: next compound
Qu. # query: IC50 of entry O=c1oc(-c2ccc(O)c(O)c2)cc2ccccc12
Ans. 4.6

====

The entries below come with measured viability at 24 h, 50 µM values attached.
# test-summary: Cytotoxicity against human HeLa cells assessed as cell proliferation at 50 uM after 24 hrs by MTT assay
# Assay type: toxicity, cell-based
# experimental-parameters: read-out: Activity
Express your answer in %, writing the number without its unit.

- compound: "O=c1oc(-c2ccccc2)cc2ccccc12"
  viability at 24 h, 50 µM, %: 76.7
- compound: "CC(c1cc2ccccc2s1)N(O)C(N)=O (stereo unspecified) [ZILEUTON]"
  viability at 24 h, 50 µM, %: 78
- compound: "O=c1oc(-c2ccc(O)cc2)cc2cccc(O)c12"
  viability at 24 h, 50 µM, %: 70.6
- compound: "COc1cc(O)c2c(=O)oc(-c3ccccc3)cc2c1"
  viability at 24 h, 50 µM, %: 78.1
- compound: "COc1cc(-c2cc3ccccc3c(=O)o2)cc(OC)c1OC"
  viability at 24 h, 50 µM, %: 75.7

Qu. # query: viability at 24 h, 50 µM of entry COc1cc(-c2cc3cccc(O)c3c(=O)o2)ccc1O
Ans. 79.8
